# Protocol details: Log P/D determination, pH-metric titration with 1-octanol
# Type: physicochemical
# Condition label: neutral species; 1-octanol:water; 25.3 °C; pH-metric, three titrations
Reported metric: logP
Numbers only.

Documented logP of CCNn1c(C)c(C(=O)N[C@H](c2ccccc2)C2CC2)c2cccc(F)c2c1=O [SJB-01] : 4.73

###

# Protocol details: Solubility by gravimetric method in 14 solvents
# Assay type: physicochemical
# Condition label: dioxane, 23 °C, organic solvent or mixture, thermodynamic from solid
Reported metric: solubility at 2 days

Documented solubility at 2 days of CCNn1c(C)c(C(=O)N[C@H](c2ccccc2)C2CC2)c2cccc(F)c2c1=O : > 74 mg/mL

###

# Protocol details: Thermodynamic equilibrium aqueous solubility
# Type: physicochemical
# Condition label: aqueous medium, aqueous buffer, thermodynamic from solid, pH 7.4
Reported metric: solubility thermodynamic

Documented solubility thermodynamic of CCNn1c(C)c(C(=O)N[C@H](c2ccccc2)C2CC2)c2cccc(F)c2c1=O : ~14 µg/mL

###

# Protocol details: Solubility in buffered solutions vs pH at 37 °C (HPLC)
# Assay type: physicochemical
# Condition label: aqueous buffers, aqueous buffer, thermodynamic from solid; about 37 °C; read-out: Solubility in buffered solution (range)
Reported metric: solubility at 24 h

Documented solubility at 24 h of CCNn1c(C)c(C(=O)N[C@H](c2ccccc2)C2CC2)c2cccc(F)c2c1=O : 6.4 to 9.8 µg/mL

###

# Protocol details: Solubility by gravimetric method in 14 solvents
# Type: physicochemical
# Condition label: ACN, 23 °C, organic solvent or mixture, thermodynamic from solid
Reported metric: solubility at 2 days

Documented solubility at 2 days of CCNn1c(C)c(C(=O)N[C@H](c2ccccc2)C2CC2)c2cccc(F)c2c1=O : 62 mg/mL

###

# Protocol details: Solubility in water and simulated fluids (FaSSIF, FaSSGF) at 37 °C
# Format: physicochemical
# Condition label: water, FaSSIF and FaSSGF, 37 °C, thermodynamic from solid, about 37 °C; read-out: Solubility in water and simulated fluids (range)
Reported metric: solubility at 24 h

Documented solubility at 24 h of CCNn1c(C)c(C(=O)N[C@H](c2ccccc2)C2CC2)c2cccc(F)c2c1=O : 6 to 8 µg/mL

###

# Protocol details: Solubility by gravimetric method in 14 solvents
# Assay type: physicochemical
# Condition label: THF, 50 °C, organic solvent or mixture, thermodynamic from solid
Reported metric: solubility at 2 days

Documented solubility at 2 days of CCNn1c(C)c(C(=O)N[C@H](c2ccccc2)C2CC2)c2cccc(F)c2c1=O : > 68 mg/mL

###

# Protocol details: Solubility in water and simulated fluids (FaSSIF, FaSSGF) at 37 °C
# Format: physicochemical
# Condition label: water, 37 °C, water, thermodynamic from solid, Water, 37 °C, 24 hrs; read-out: Solubility
Reported metric: solubility at 24 h

Documented solubility at 24 h of CCNn1c(C)c(C(=O)N[C@H](c2ccccc2)C2CC2)c2cccc(F)c2c1=O : 5 µg/mL

###

# Protocol details: Absorption of solid compound dosed orally in rats
# Type: in vivo, Sprague Dawley rats
# Condition label: Sprague Dawley, rat, in vivo, oral microsuspension, 1 and 5 mg/kg, read-out: Absolute bioavailability
Reported metric: bioavailability

Documented bioavailability of CCNn1c(C)c(C(=O)N[C@H](c2ccccc2)C2CC2)c2cccc(F)c2c1=O : ~20%
